# Tested on: Symmetric Di-methyl Arginine (SDMA) signal (PRMT5 inhibition) in HCT116 MTAP-deleted cells
# protocolDetails: Symmetric di-methyl arginine image-based high content screen assay (SDMA assay), HCT116 MTAP-deleted
# Assay type: cell-based
# measurementContext: Homo sapiens, HCT-116, HCT116 MTAP-deleted, class symbols
# Description: Symmetric di-methyl arginine image-based high content screen assay (SDMA assay) was performed in HCT116 WT and HCT116 MTAP-deleted cell lines to measure Symmetric Di-methyl Arginine (SDMA) signal reduction after selective PRMT5 inhibition in the MTAP-deleted cells. Control compounds were analyzed in parallel each time for quality control. […] The SDMA signal and DAPI signal per cell were counted using a Cellomics CX7 LZR instrument reading under 488 and 405 nm laser, respectively. […]
pEC50: −log10 of the molar value.
readoutType: pEC50

Consider the reported pEC50 for these compounds:
> print(dat)
                                    compound      observed
 1  C[C@H](c1ncccn1)N(Cc1ccc(C(F)(F)F)cn1)C(=O)c1cc2c(cc1Cl)nc(N)n1cncc21        < 8.30
 2  Nc1nc2cc(F)c(C(=O)N(Cc3ccc(C(F)(F)F)cn3)C34CC(C3)C4)cc2n2cncc12        ≥ 9.00
 3  CN(C(=O)c1cc2c(cc1F)nc(N)c1cncn12)[C@@H]1COc2nc(C(F)(F)F)ccc21  8.30 to 9.00
 4  Cc1ncn2c1c(N)nc1cnc(C(=O)N3CCC[C@@H]4Oc5cc(S(F)(F)(F)(F)F)ccc5[C@@H]43)cc12        ≥ 9.00
 5  Nc1nc2cc(F)c(C(=O)N3CCO[C@@H]4Cc5cc(C(F)F)ccc5[C@@H]43)cc2n2cncc12  8.30 to 9.00
 6  Nc1nc2cnc(C(=O)N3CCC[C@@H]4Oc5cc(C(F)(F)F)ccc5[C@@H]43)cc2n2c(F)ncc12 (single isomer, unassigned)        < 8.30
 7  C=Cc1cc2nc(N)c3cncn3c2cc1C(=O)N(C)[C@@H]1COc2cc(C(F)(F)F)ccc21  8.30 to 9.00
 8  Nc1nc2cnc(C(=O)N3CCC[C@@H]4Oc5cc(C(F)(F)F)ccc5[C@@H]43)cc2n2cncc12        ≥ 9.00
 9  C#Cc1cc2nc(N)c3cncn3c2cc1C(=O)N(C)[C@@H]1COc2cc(C(F)(F)F)ccc21        ≥ 9.00
10  [2H]C1([2H])C[C@H]2C[C@H](c3ccc(C(F)(F)F)cc3O2)N1C(=O)c1cc2c(cc1F)nc(N)c1cncn12        ≥ 9.00

Alright, here's another compound for you.
What pEC50 value was documented for this compound, C[C@H]1C[C@@H]2Oc3cc(C(F)(F)F)ccc3[C@@H]2N(C(=O)c2ccc3nc(N)c4cncn4c3c2)C1 (single isomer, unassigned) ?
≥ 9.00

====

# Test system: HCT116 MTAP-deleted cell lines
# protocolDetails: Cell viability assay (CellTiter-Glo, 7 days), HCT116 MTAP-deleted
# Assay type: cell-based
# measurementContext: Homo sapiens, HCT-116; cell viability assay, HCT116 MTAP-deleted; class symbols; read-out: CC50
Record form. Attribute: CC50. Fill in for each entry.

> print(dat)
                                   compound                      measuredon        observed
1  CN(C(=O)c1ccc2nc(N)c3cncn3c2c1)[C@@H]1COc2cc(C#CC3(CF)CC3)ccc21  HCT116 MTAP-deleted cell lines  100 to 1000 nM
2  CN(C(=O)c1cc2c(cc1F)nc(N)c1cncn12)[C@@H]1COc2cc(C(F)(F)F)ncc21  HCT116 MTAP-deleted cell lines        < 100 nM
3  Nc1nc2cc(F)c(C(=O)N3CCC[C@@H]4Oc5ccc(C(F)(F)F)cc5[C@@H]43)cc2n2cncc12  HCT116 MTAP-deleted cell lines        < 100 nM
4  CN(C(=O)c1cc2c(cc1F)nc(N)c1cncn12)C1CSc2ccccc21 (stereo not drawn)  HCT116 MTAP-deleted cell lines  100 to 1000 nM
5  CN(C(=O)c1cc2c(cc1F)nc(N)c1cncn12)[C@@H]1COc2cc(F)ccc21  HCT116 MTAP-deleted cell lines  100 to 1000 nM

Count: 7. Required value per item: CC50.
1. Cc1ncn2c1c(N)nc1cc(F)c(C(=O)N3CC[C@H]4C[C@@H]3c3ccc(C(F)(F)F)nc3O4)cc12
2. Cc1ncn2c1c(N)nc1cnc(C(=O)N3C[C@H](C)C[C@@H]4Oc5cc(C(F)(F)F)ccc5[C@@H]43)cc12
3. CN(C(=O)c1cc2c(cc1F)nc(N)c1cncn12)[C@@H]1COc2cc(C3CC(F)(F)C3)ccc21
4. Cc1ncc2c(N)nc3cnc(C(=O)N4C[C@H](C)C[C@@H]5Oc6c(ccc(C(F)(F)F)c6F)[C@@H]54)cc3n12
5. CN(C(=O)c1cc2c(cc1F)nc(N)c1cncn12)[C@@H]1COc2cc(C#CC3(C(F)(F)F)CC3)ccc21
6. CN(C(=O)c1cc2c(cc1Cl)nc(N)c1cncn12)[C@@H]1COc2cc([C@@H]3C[C@H]3C#N)c(F)cc21
7. Nc1nc2cc(F)c(C(=O)N3CCO[C@@H]4Cc5cc(F)ccc5[C@@H]43)cc2n2cncc12 (single isomer, unassigned)

1: < 100 nM; 2: 100 to 1000 nM; 3: < 100 nM; 4: < 100 nM; 5: 100 to 1000 nM; 6: < 100 nM; 7: < 100 nM

Count: 6. Required value per item: CC50.
1. Nc1nc2ccc(C(=O)N3CCC[C@@H]4Oc5cc(C(F)(F)F)ccc5[C@@H]43)cc2n2cnc(F)c12
2. Nc1nc2cc(F)c(C(=O)N3CCOC[C@H]3c3ccc(OC(F)(F)F)cc3)cc2n2cncc12 (single isomer, unassigned)
3. Cc1ncn2c1c(N)nc1cnc(C(=O)N3CC[C@H]4C[C@@H]3c3cc(F)c(C(F)(F)F)cc3O4)cc12
4. C=Cc1cc2nc(N)c3cncn3c2cc1C(=O)N(C)[C@@H]1COc2cc(C(F)(F)F)ccc21
5. CN(C(=O)c1cc2c(cc1F)nc(N)c1cncn12)[C@@H]1COc2cc([C@@H]3C[C@H]3c3ccn(C(F)F)n3)ccc21
6. Cc1ncn2c1c(N)nc1cnc(C(=O)N3CCC[C@@H]4Oc5cc(-c6cnn(C(F)(F)F)c6)ccc5[C@@H]43)cc12

1. < 100 nM
2. 100 to 1000 nM
3. < 100 nM
4. < 100 nM
5. < 100 nM
6. < 100 nM

====

# protocolDetails: MDR1/BCRP assay: permeability in cPgp-KO-MDCK-WT cells
# Type: in vitro ADME
# measurementContext: dog, pH 7.4
Record form. Attribute: Papp A→B at 2 h, 1 µM. Fill in for each entry.
One number for each entry, in ×10⁻⁶ cm/s.

Consider the reported Papp A→B at 2 h, 1 µM for these compounds:
> print(dat)
                                   compound  observed
1  C[C@H]1CN(C(=O)c2cc3c(cc2F)nc(N)c2cncn23)[C@H]2c3ccc(C(F)(F)F)cc3C[C@H]2O1 (single isomer, unassigned) [Ff-81]      10.5
2  Nc1nc2ccc(C(=O)N3CCC[C@@H]4Oc5cc(C(F)(F)F)cc(F)c5[C@@H]43)cc2n2cncc12 [Ff-693]      12.6

Count: 3. Required value per item: Papp A→B at 2 h, 1 µM.
1. Nc1nc2cnc(C(=O)N3CCC[C@@H]4Oc5cc(OC(F)(F)F)ccc5[C@@H]43)cc2n2cncc12 [Ff-341]
2. Nc1nc2cc(F)c(C(=O)N3CCO[C@@H]4Cc5cc(OC(F)F)c(F)cc5[C@@H]43)cc2n2cncc12 [Ff-174]
3. Cc1ncn2c1c(N)nc1ccc(C(=O)N3CCC[C@@H]4Oc5cc(C(F)(F)F)ccc5[C@@H]43)cc12 [Fg-31]

[10.3, 17.8, 10.3]

What Papp A→B at 2 h, 1 µM value was documented for this compound, Nc1nc2cnc(C(=O)N3CCC[C@@H]4Oc5c(ccc(C(F)(F)F)c5F)[C@@H]43)cc2n2cncc12 [Ff-109] ?
12.2

====

# Test system: HCT116 MTAP-deleted cell lines
# protocolDetails: Cell viability assay (CellTiter-Glo, 7 days), HCT116 MTAP-deleted
# Format: cell-based
# measurementContext: Homo sapiens, HCT-116; cell viability, HCT116 MTAP-deleted; class symbols; read-out: CC50
Record form. Attribute: CC50. Fill in for each entry.

Consider the reported CC50 for these molecules:
> print(dat)
                                   molecule        observed
1  C[C@H]1CN(C(=O)c2cc3c(cc2F)nc(N)c2cncn23)[C@H]2c3cc(F)c(OC(F)(F)F)cc3C[C@H]2O1 (single isomer, unassigned) [Ff-198]        < 100 nM
2  Cc1ncc2c(N)nc3ccc(C(=O)N4CCC5(CC4)C(=O)N(C)c4ccccc45)cc3n12 [Ff-64]  100 to 1000 nM

Alright, here's another molecule for you.
What CC50 value was documented for this molecule, Nc1nc2cc(F)c(C(=O)N3CCC[C@@H]4Oc5c(ccc(Cl)c5F)[C@@H]43)cc2n2cncc12 (racemic) [Ff-335] ?
< 100 nM
